List of cytotoxicity at 10 µM values.
Test: Toxicity liver stage against HepG2, at 10uM
Assay type: cell-based
Design: test concentration 10 uM, cell line HepG2-A16-CD81EGFP
Conditions: human, HepG2-A16-CD81EGFP cells; read-out: INHIBITION

COMPOUND: CS(=O)(=O)c1nccn1Cc1ccc(F)cc1Cl
UNITS_LABEL: %
cytotoxicity at 10 µM: -4.99

COMPOUND: O=C1CC2(CCSC2)C(=O)N1Cc1coc(-c2ccc(F)cc2)n1 (stereo not drawn)
UNITS_LABEL: %
cytotoxicity at 10 µM: 6.88

COMPOUND: CCN(CC)C1COc2c(cc(Br)c(C)c2Br)C1=O (stereo not drawn)
UNITS_LABEL: %
cytotoxicity at 10 µM: 5.77

COMPOUND: CN(C)c1ncccc1CNC(=O)NCc1cccs1
UNITS_LABEL: %
cytotoxicity at 10 µM: -4.87

COMPOUND: CCN(C)S(=O)(=O)NCC(C)(O)c1ccsc1 (stereo not drawn)
UNITS_LABEL: %
cytotoxicity at 10 µM: 1.83

COMPOUND: CC(=O)N1CCCCCC1C1CCN(Cc2nc(C3CC3)no2)CC1 (stereo not drawn)
UNITS_LABEL: %
cytotoxicity at 10 µM: -56.4

COMPOUND: CC(Cn1ccnc1)NC(=O)N(C)Cc1ccc2c(c1)OCCO2 (stereo not drawn)
UNITS_LABEL: %
cytotoxicity at 10 µM: -29.5

COMPOUND: Cc1nc(C2CCCN(C(=O)c3cnn(C4CCCCC4)c3)C2)no1 (stereo not drawn)
UNITS_LABEL: %
cytotoxicity at 10 µM: -6.37

COMPOUND: Cc1cnn(CCCn2ncc(N3CCC(CN)C3)cc2=O)c1 (stereo not drawn)
UNITS_LABEL: %
cytotoxicity at 10 µM: -48.2

COMPOUND: Cc1cc(C)c2nc(CN3CCOCC(O)C3)cc(O)c2c1 (stereo not drawn)
UNITS_LABEL: %
cytotoxicity at 10 µM: -3.89

COMPOUND: Cc1ccc(N2CCC3(CCN(Cc4nccs4)CC3)CC2)nn1
UNITS_LABEL: %
cytotoxicity at 10 µM: 10.6

COMPOUND: Cc1cc(C)c(CNC(=O)N2CCN(c3ccccn3)CC2)c(=O)[nH]1
UNITS_LABEL: %
cytotoxicity at 10 µM: -9.95

COMPOUND: COC(=O)C1CCN(c2cc(C)nc(-c3ccncc3)n2)CC1
UNITS_LABEL: %
cytotoxicity at 10 µM: 2.76

COMPOUND: O=C(N1CCCC1)N1CCO[C@H]2[C@@H](Oc3ccccn3)CC[C@@H]21
UNITS_LABEL: %
cytotoxicity at 10 µM: 8.95

COMPOUND: c1cnc(N2CC[C@@H]3O[C@@H](COCc4cccnc4)CC[C@@H]32)nc1
UNITS_LABEL: %
cytotoxicity at 10 µM: 11.2

COMPOUND: O=C(c1cccs1)N1CCOCC2(C1)CN(c1cccnc1)C(=O)CO2 (stereo not drawn)
UNITS_LABEL: %
cytotoxicity at 10 µM: 3.36

COMPOUND: Fc1ccc(-c2noc(C3COCCO3)n2)cc1F (stereo not drawn)
UNITS_LABEL: %
cytotoxicity at 10 µM: -1.21

COMPOUND: CC(C)Cc1cc(C(=O)NCC(O)c2ccc(F)cc2)n(C)n1 (stereo not drawn)
UNITS_LABEL: %
cytotoxicity at 10 µM: -2.96

COMPOUND: COc1cc(C(=O)N2CCO[C@H]3[C@H](OCC4CC4)CC[C@@H]32)ccc1F
UNITS_LABEL: %
cytotoxicity at 10 µM: 9.32

COMPOUND: C=C(C)CNC(=O)C1CCCN(C2CCN(C(C)C)CC2)C1 (stereo not drawn)
UNITS_LABEL: %
cytotoxicity at 10 µM: -0.454

COMPOUND: CCOCCN1C[C@H](c2cccc(OC)c2)[C@@H](N)C1
UNITS_LABEL: %
cytotoxicity at 10 µM: -0.786

COMPOUND: CCN(CCNC(=O)C1CCCN(C(C)=O)C1)c1ccccc1C (stereo not drawn)
UNITS_LABEL: %
cytotoxicity at 10 µM: 4.87

COMPOUND: CN(C)C(=O)COCc1cncc2c1CCN(Cc1cnn(C)c1)C2
UNITS_LABEL: %
cytotoxicity at 10 µM: -3.48

Just for reference, ChEMBL document CHEMBL4513216 is where these values come from.
